Assay: Pharmacokinetic study (PK) after single i.v. and i.p. administration
Type: in vivo, male CD-1 mice
Conditions: male, CD-1, mouse, in vivo, iv, 2 mg/kg
Recorded Endpoint: level at 3 h (ng/mL)
Report only the number, with the unit ng/mL understood.

What value of measured level at 3 h is listed for N=C(N)NCCC[C@@H]1NC(=O)[C@@H]2CSSC[C@H](NC(=O)[C@H](Cc3ccc4ccccc4c3)NC(=O)[C@H](CCCNC(=N)N)NC(=O)[C@H](CCCNC(=N)N)NC(=O)[C@H]3CCCN3C(=O)CNC1=O)C(=O)N[C@@H](Cc1ccc(O)cc1)C(=O)N[C@@H](CCCNC(N)=O)C(=O)N[C@@H](CCCCN)C(=O)N1CCC[C@@H]1C(=O)N1CCC[C@H]1C(=O)N[C@@H](Cc1ccc(O)cc1)C(=O)N[C@@H](CCCNC(=N)N)C(=O)N[C@@H](CCCNC(N)=O)C(=O)N2 [Ex. 51] ?
49

Each recorded value in this set is attributed to patent US8895695B2.
